system: SK-OV-3 ovarian; test: NCI-60 one-dose screen, 48 h (100 = growth as untreated, 0 = no growth, -100 = all killed); conditions: 10 µM unless noted
Compounds without any hit were thinned out: in the full panel of roughly 83,000, 20% have a hit. Calls of active or inactive are those of the source. How the source made its calls: active means growth percent below 10; inactive means the rest.
value-kind: growth

Known results for molecules:
CCOC(=O)c1cc(Cl)c(O)c(Cl)c1    109% (inactive)
Cc1cc(C)cc(OCC(=O)O)c1    101% (inactive)
CC(=O)/C(C)=N\OC(=O)Nc1ccccc1    90.3% (inactive)
CC(C)(C)[Si](C)(C)OCC1OC(n2cnc3c(N)ncnc32)CC1OS(C)(=O)=O (stereo not given)    101% (inactive)
CC(=O)OCC1OC(n2cnc3c(=S)nc(N)[nH]c32)C(OC(C)=O)C1OC(C)=O (stereo not given)    50.1% (inactive)
CC(=O)Nc1ccc(/C=C2\SC(=S)N(/C=C(\C(C)=O)C(N)=O)C2=O)cc1    86.9% (inactive)

Fill in growth for each of the 3 molecules listed.
1. Oc1ccc2ccccc2c1CN1CCOCC1
2. C[C@H](CCC[C@H](C)OS(=O)(=O)c1ccccc1)OS(=O)(=O)c1ccccc1
3. COC1OC(CO)C(OC)C(O)C1O (stereo not given)

// result
1: 104% (inactive); 2: 101% (inactive); 3: 105% (inactive)

Provide growth for all items below, preserving their order.
1. CCNC(=O)OCCc1c2ccccc2nc2ccccc12
2. O=C(N/N=C\c1ccc(Cl)cc1Cl)c1ccncc1
3. CN(C(=S)S(=O)(=O)C12CC3CC(CC(C3)C1)C2)c1ccccc1
4. CC(=O)C1C(=O)C(=O)N(c2ccc(Cl)c(Cl)c2)C1=O (stereo not given)
5. CSCCC(NC(=O)C(Cl)Cl)C(=O)O (stereo not given)
6. Cc1[nH]nc(C(N)=O)c1[N+](=O)[O-]

// result
["109% (inactive)", "117% (inactive)", "99.9% (inactive)", "106% (inactive)", "85.6% (inactive)", "101% (inactive)"]

Report growth for every entry below.
1. Clc1cccc(Cl)c1CSc1nc2ccccc2n2cccc12
2. CC(C)c1ccccc1NC(=O)N1CCC(C(C)C)CC1
3. O=C(c1ccccc1)c1ccc(-c2ccc(O)cc2)cc1
4. COc1cccc(C(=O)NNC(=O)c2cccc3ccccc23)c1

// result
["88.6% (inactive)", "105% (inactive)", "93.4% (inactive)", "100% (inactive)"]

For each of the molecules below, note its growth.
1. COC1OC(COC(C)=O)C(OC(C)=O)C(OC(C)=O)C1OC(C)=O (stereo not given)
2. CC(C)N1CC(=O)N2CSCC2C1=O (stereo not given)
3. CN(C)CCOC(=O)Nc1ccc(Cc2ccc(NC(=O)OCCN(C)C)cc2)cc1
4. Nc1ncnc(Nc2ccccc2)n1

// result
101% (inactive)
116% (inactive)
137% [100 µM] (inactive)
117% (inactive)

For every record below, what is its growth?
1. CCOC(=O)CNC(=O)Sc1ccc(C(C)(C)C)cc1
2. C#CC(O)c1ccccc1 (stereo not given)

// result
1. 116% (inactive)
2. 103% (inactive)

* * *

system: MOLT-4 leukemia; assay: NCI-60 one-dose screen, 48 h (100 = growth as untreated, 0 = no growth, -100 = all killed); settings: 10 µM unless noted
The panel holds about 83,000 compounds, 20% with a hit somewhere; the sample as a whole holds those more often.
Please go through the items and note down their growth.
Give bare numbers, in %.

O=S(=O)(O)C(C(I)I)S(=O)(=O)O    103
CC(CCC#N)(CCC#N)C(=O)c1ccccc1    97.8
CN(C)c1ccc2c(N(C)C)cc(N(C)C)nc2c1    80.3
Cc1cc2nc(C)c(C)nc2cc1C    106
CCCCCCCCCCCCCCCCCC(=O)NCCNC(=O)CCCCCCCCCCCCCCCCC    67.2
ClCC(Cl)[C@@H]1CC2C=CC1C2 (some centres not stated)    114

Now look at this one.
Looking up CCOC(=N)CC(=O)Nc1cccc(C)c1Cl , I found its growth recorded as 108

Every entry's value here was drawn from PubChem BioAssay (NCI).
